Property: protein stability index; scope: individual sequences
Assay: protein stability index of a GFP-peptide fusion (yeast GPS) (PSI 1-4); higher = more stable; sorted into four equal gates, so the index is relative within each strain
Details: pdr5∆
Enter a number only.

{"residueCodes": "VKLGLNSKMPTRFPPAV [PRP8]", "val": 3.06}
{"residueCodes": "SDTLKEFKIEQNNEQNP [YDL116W/NUP84]", "val": 3.01}

Switching to the query record.
Q. // protein stability index lookup, key: DRDALSGWGAVVYIIKK [PUP3]
A. 2.96

----------
Assay: protein stability index of a GFP-peptide fusion (yeast GPS) (PSI 1-4); higher = more stable; sorted into four equal gates, so the index is relative within each strain
Conditions: doa10∆
measureName: protein stability index
Enter a number only.

# count of solved cases: 5
{"residueCodes": "SSFGSESLTFNEFQLQW [SWI1]", "protein stability index": 2.98}
{"residueCodes": "PVTLAKVIKVLGRTGSR [RPS28A]", "protein stability index": 1.96}
{"residueCodes": "IPQDFENEVSDIDVTIV [ESC2]", "protein stability index": 2.96}
{"residueCodes": "KQKSWVPSYIHVEKERA [YIL149C/MLP2]", "protein stability index": 1.79}
{"residueCodes": "FSQFWYWFPLAHFLSLS [RPN2]", "protein stability index": 1.66}

Q. // protein stability index lookup, key: YIRVNHADKDTFSSSIS [POP8]
A. 2.76

Q. Likewise for PDDEKFTDENTIVLSLN [RPC40] ?
A. 3.46

Q. Likewise for KKEANLFPEQQNKEIKA [RPL6A] ?
A. 3.38

Q. Likewise for NASLTIEDEDEPFNAGI [SMC1] ?
A. 3.29

Q. Likewise for IAKSQDKKSCSVDDVLS [DPB4] ?
A. 3.28

Q. Likewise for RGGGHHSFEDAHTPMLQ [FAS1] ?
A. 3.3

Q. Likewise for VDTGLQPQHPHYVSTSK [YLR018C/POM34] ?
A. 2.38

Q. Likewise for IWNDVVYGEGTSRVTGI [YJL039C/NUP192] ?
A. 3.35

Q. Likewise for LIPTIFRYITTWENEFL [PRP8] ?
A. 2.38
